Values from ChEMBL document CHEMBL2203047

Some compounds, each annotated with its measured Emax.
system_under_test: Metabotropic glutamate receptor 5 (Rattus norvegicus)
assay_protocol: Ago-positive allosteric modulation of rat mGlu5 receptor expressed in HEK293 cells by fluorescence-based calcium flux assay relative to glutamate
Format: functional, cell-based

compound	Emax [%]
O=S(=O)(c1ccc(F)cc1)N1CCC[C@H](c2nc(-c3ccc(F)cc3)no2)C1	84
CC(C(=O)Nc1cccc(Cl)c1)N(c1ccccc1Cl)S(C)(=O)=O (racemic)	43
CS(=O)(=O)N(CC(=O)Nc1cccc(Cl)c1)c1ccccc1Cl	74
Cn1cnc(S(=O)(=O)N2c3ccccc3CCC2C(=O)Nc2cccc(Cl)c2)c1 (racemic)	75
CS(=O)(=O)N(CC(=O)Nc1ccc(F)cn1)c1ccccc1Cl	66
